# Tested on: E. coli TESEC Mtb Alr
# MEASUREMENT_PROTOCOL: growth (OD600 after 10 h); higher = more growth (less inhibition)
# CONDITION_LABEL: arabinose 10000 nM; compound 0.1 mM; raw OD600 reference: median of DMSO wells 0.264, cell-free background 0.041
Structures can show the parent of a compound that is named as a salt.
For each of the molecules below, state its growth.
Format: numeric value only, no unit, no commentary.

What does the data say about its growth? Entry: Cc1ccc(S(=O)(=O)NC(=O)NN2CCCCCC2)cc1 [Tolazamide]
0.281

Entry CCCCOc1ccc(C(=O)CCN2CCCCC2)cc1 [Dyclonine hydrochloride] please
0.252

Continue with C[n+]1ccccc1/C=N/O [Pralidoxime chloride]
0.256

What do we get for `C[C@]12CC[C@@H]3c4ccc(O)cc4CC[C@H]3[C@@H]1CC[C@@H]2O` ?
0.214

Note, next up: CCOC(=O)NNc1nncc2ccccc12 [Todralazine hydrochloride]
0.252

Follow-up entry: `CCOC(=O)[C@H](CCc1ccccc1)N[C@@H](C)C(=O)N1[C@H](C(=O)O)C[C@@H]2CCC[C@@H]21`
0.288

Also need `CCC[C@H](N[C@@H](C)C(=O)N1[C@H](C(=O)O)C[C@@H]2CCCC[C@@H]21)C(=O)OCC` , thanks.
0.286

Cool, now CN(C)CCOC(c1ccc(Cl)cc1)c1ccccn1 (centres undefined) [Carbinoxamine maleate salt]
0.265

Input Cc1cnc(C(=O)NCCc2ccc(S(=O)(=O)NC(=O)NC3CCCCC3)cc2)cn1 [Glipizide]
0.263
